Just for reference, paper PMC9911399 is where these values come from.

# TESTED SYSTEM: T1, RBFOX1 RRM RbFoxmut (Fox-RRM*) (Homo sapiens, UniProt Q9NWB1 109-208, R118D;E147R;N151S;E152T)
# T1 sequence: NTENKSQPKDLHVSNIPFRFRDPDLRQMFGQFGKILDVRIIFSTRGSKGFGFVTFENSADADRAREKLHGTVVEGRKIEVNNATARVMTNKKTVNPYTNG
# ASSAY INFO: EMSA; HiTS-Eq, 1 nM pool, 10 min; buffer printed only for the single-RNA assays: 10 mM Tris pH 7.5, 150 mM NaCl, 3.4 mM EDTA, 0.001% NP-40, 30 C
# PROTOCOL CONDITIONS: tags: His6 N-terminal (pET28a); label: 5' 32P
In all, about 16,000 sequences were measured (“ka relative to ugcaugu”: median about 0.096, highest 2% from about 0.35 on). This is one part of a sample in which the highest values are shown more often than they occur.
Listed binders paired with reported binding signal
MEASUREMENT KIND: binding signal

binder="UGAAUCG (DNA:RNA) RNA: GGGAGACCGGAAUUCAGAUUGUCCUGAAUCGUUAAAUCCCGUCGUAGCCACCA DNA 1: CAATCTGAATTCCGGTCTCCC DNA 2: TGGTGGCTACGACGGGATT" measured="0.363 KA relative to UGCAUGU"
binder="GAAUCCG (DNA:RNA) RNA: GGGAGACCGGAAUUCAGAUUGUCCGAAUCCGUUAAAUCCCGUCGUAGCCACCA DNA 1: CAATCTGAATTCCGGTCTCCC DNA 2: TGGTGGCTACGACGGGATT" measured="0.219 KA relative to UGCAUGU"
binder="CGGUAUG (DNA:RNA) RNA: GGGAGACCGGAAUUCAGAUUGUCCCGGUAUGUUAAAUCCCGUCGUAGCCACCA DNA 1: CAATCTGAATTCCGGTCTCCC DNA 2: TGGTGGCTACGACGGGATT" measured="0.885 KA relative to UGCAUGU"
binder="GGAUCGC (DNA:RNA) RNA: GGGAGACCGGAAUUCAGAUUGUCCGGAUCGCUUAAAUCCCGUCGUAGCCACCA DNA 1: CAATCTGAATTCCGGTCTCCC DNA 2: TGGTGGCTACGACGGGATT" measured="0.23 KA relative to UGCAUGU"
binder="GAAUCGU (DNA:RNA) RNA: GGGAGACCGGAAUUCAGAUUGUCCGAAUCGUUUAAAUCCCGUCGUAGCCACCA DNA 1: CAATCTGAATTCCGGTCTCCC DNA 2: TGGTGGCTACGACGGGATT" measured="0.576 KA relative to UGCAUGU"
